PROPERTY_LABEL: melting point

Lab note: measured melting point of CSc1nc(-c2ccc(N)cc2)c[nH]1 was 85 to 86 °C

Lab note: measured melting point of CC1CCCN(C(=O)c2ccc([N+](=O)[O-])cc2)C1 (stereo unspecified) was 70.2 to 71.3 °C

Lab note: measured melting point of CC(Br)C(=O)c1ccc(OC(=O)C(C)(C)C)c(OC(=O)C(C)(C)C)c1 (stereo unspecified) was 58 to 60 °C

Lab note: measured melting point of COC(=O)c1cccc(Nc2nc(-c3cccnc3)nc3ccccc23)c1 was 228 to 245 °C

Lab note: measured melting point of COc1ccc(CC(=O)N2CCC[C@H]2C(=O)O)cc1 was 138 to 139 °C

----------
PROPERTY_LABEL: melting point

Observe how each entry below is paired with its result.
In [3]: df
Out[3]:
                                   molecule  property_label  value_reported
0  CCCCCCNC(=O)Nc1cccc2c1C1(COc3cc4c(cc31)OCCO4)C(=O)N2C (stereo not given)   melting point   154 to 155 °C
1      N#CC(=Cc1cc2ccccc2c2ccccc12)c1ccncc1   melting point   206 to 208 °C
2  Cc1cc(F)cc2c1-c1ccc(F)cc1C21NC(=O)NC1=O (stereo not given)   melting point        > 320 °C
3  CCCCCCCCCCCCCCCCCCNC(=O)OCC(CNS(=O)(=O)CCCI)NC(C)=O (stereo not given)   melting point   101 to 102 °C

Please turn your attention to the following entry.
Lab note: measured melting point of CCCc1ccc(NCc2ccc(N(C)C)cc2)cc1 was 74 to 76 °C

----------
PROPERTY_LABEL: melting point (°C)

(A) CC(C)(C)OC(=O)N1CCO[C@@H](c2ccc(Br)cc2)C1
(B) O=P(Cc1ccccc1O)(c1ccccc1)c1ccccc1
Which numeric melting point is bigger, that of A or that of B ? Use the label to indicate which entry you chose.
B

----------
PROPERTY_LABEL: melting point

Observe how each entry below is paired with its result.
>>> df
                                   molecule  value_reported
0  CCOC(=O)CCc1cc(C(=O)c2ccc(C(=O)OCC)cc2)ccc1OCCCCCBr   76.5 to 78 °C
1  CN1C(=O)C(F)N=C(c2ccccc2F)c2cc(Br)ccc21 (stereo not drawn)   127 to 130 °C

Lab note: measured melting point of CCCCCCCCCCCCCCCC(=O)CSC was 38 to 40 °C

----------
PROPERTY_LABEL: melting point

In [3]: df
Out[3]:
                                   compound  value_reported
0  COC(=O)c1ccc(C#CCc2ccc3c(c2)C(C)(C)CCC3(C)C)cc1O     75 to 77 °C
1  CC(C)C1CC(O)OC(C(C)C2CC(=O)C3C4C(O)C(O)C5C(O)C(O)CCC5(C)C4CCC23C)C1 (stereo not drawn)   239 to 241 °C
2      FC(F)(F)c1cc(Cl)c(-n2nccc2Cl)c(Cl)c1     70 to 72 °C
3  O=C(O)C1=Cc2cc(Cl)c(Cl)cc2OC1C(F)(F)F (stereo not drawn)   196 to 198 °C
4  N#Cc1c(C(F)(F)F)cc(N(Cc2ccccn2)Cc2ccccn2)cc1C(F)(F)F          122 °C

Lab note: measured melting point of COc1ccc(S(=O)(=O)Nc2ccccc2NC(=O)c2cccnc2Cl)cc1 was 133 to 135 °C

Lab note: measured melting point of COC(=O)c1c(C)cc2cc(OC)c(OC)cc2c1-c1ccnc(Cl)c1 was 133 to 136 °C

Lab note: measured melting point of COc1cc2c(cc1OC)CN(c1nc(N)nc(Cl)n1)CC2 was 196 to 197 °C

Lab note: measured melting point of Fc1cccc2oc(CCC#Cc3ccccn3)nc12 was 89 to 89.5 °C

Lab note: measured melting point of COc1ccc(Nc2nc(C)ncc2S(=O)(=O)c2ccc(OCc3ccccc3)cc2)c(C)n1 was 160 to 165 °C

Lab note: measured melting point of Cc1cc(-c2cccnc2)cc2ccc(=O)[nH]c12 was 236 °C

Lab note: measured melting point of Nc1cc(C=C2OC(=O)c3ccccc32)ccc1F was 189 to 191 °C

Lab note: measured melting point of O=C1C=CC(O)(c2cc3ccccc3o2)c2ccccc21 (stereo not drawn) was 105 to 107 °C
